Test system: ANGIOTENSIN II VASOPRESSOR RESPONSE
procedure.text: AII Challenge: blockade of angiotensin II vasopressor response in conscious SHR
Type: in vivo, rat (Conscious Male Okamoto-Aoki SHR)
condition.parameters: SHR n=2; 3 mg/kg p.o.; AII 0.1 mcg/kg IV; 30 min post dose
measured.endpoint: Average Change (systolic blood pressure response to AII) (mmHg)

- CCCCc1nc2ccc(C(O)C3CCCN(C)C3=O)cc2c(=O)n1Cc1ccc(-c2ccccc2-c2nn[nH]n2)cc1 (single isomer, unassigned; isomer 2) [Example 38]: 15
- CCCCc1nc2ccc(C(OC)C3CCCO3)cc2c(=O)n1Cc1ccc(-c2ccccc2-c2nn[nH]n2)cc1 (single isomer, unassigned) [Example 24]: 22.5
- CCCCc1nc2ccc(C(O)C3CCN(C)C3=O)cc2c(=O)n1Cc1ccc(-c2ccccc2-c2nn[nH]n2)cc1 (single isomer, unassigned; isomer 1) [Example 32]: 27.5
- CCCCc1nc2ccc(C(OC)C3CCCO3)cc2c(=O)n1Cc1ccc(-c2ccccc2-c2nn[nH]n2)cc1 (single isomer, unassigned; isomer 1) [Example 23]: 45
- CCCCc1nc2ccc(C(O)C3CCCN(C)C3=O)cc2c(=O)n1Cc1ccc(-c2ccccc2-c2nn[nH]n2)cc1 (single isomer, unassigned; isomer 1) [Example 37]: 47.5

----------
Test system: ANGIOTENSIN II VASOPRESSOR RESPONSE
procedure.text: AII Challenge: blockade of angiotensin II vasopressor response in conscious SHR
Assay type: in vivo, rat (Conscious Male Okamoto-Aoki SHR)
condition.parameters: SHR n=2; 3 mg/kg p.o.; AII 0.1 mcg/kg IV; 30 min post dose
measured.endpoint: Average Change (systolic blood pressure response to AII) (mmHg)

* CCCCc1nc2ccc(C(OC)C3CCCN(C)C3=O)cc2c(=O)n1Cc1ccc(-c2ccccc2-c2nn[nH]n2)cc1 (single isomer, unassigned; isomer 2) [Example 43] | 32.5
* CCCCc1nc2ccc(C(O)C3CCN(C)C3=O)cc2c(=O)n1Cc1ccc(-c2ccccc2-c2nn[nH]n2)cc1 (single isomer, unassigned; isomer 2) [Example 33] | 17.5
* CCCCc1nc2ccc(C(OC)C3CCCN(C)C3=O)cc2c(=O)n1Cc1ccc(-c2ccccc2-c2nn[nH]n2)cc1 (single isomer, unassigned; isomer 1) [Example 42] | 35

----------
Tested on: ANGIOTENSIN II VASOPRESSOR RESPONSE
procedure.text: AII Challenge: blockade of angiotensin II vasopressor response in conscious SHR
Assay type: in vivo, rat (Conscious Male Okamoto-Aoki SHR)
condition.parameters: SHR n=2; 3 mg/kg i.v.; AII 0.05 mcg/kg IV; 240 min post dose
measured.endpoint: Average Change (systolic blood pressure response to AII)

- CCCCc1nc2ccc(C(C)(O)C3CCCN(C)C3=O)cc2c(=O)n1Cc1ccc(-c2ccccc2-c2nn[nH]n2)cc1 (single isomer, unassigned; isomer 2): 20 mmHg
- CCCCc1nc2ccc(C(OC)C3CCCO3)cc2c(=O)n1Cc1ccc(-c2ccccc2-c2nn[nH]n2)cc1 (single isomer, unassigned; isomer 1) [Example 23]: 14 mmHg
- CCCCc1nc2ccc(C(O)C3CCCN(C)C3=O)cc2c(=O)n1Cc1ccc(-c2ccccc2-c2nn[nH]n2)cc1 (single isomer, unassigned; isomer 1): 10 mmHg
- CCCCc1nc2ccc(C(OC)C3CCCO3)cc2c(=O)n1Cc1ccc(-c2ccccc2-c2nn[nH]n2)cc1 (single isomer, unassigned) [Example 24]: 7.5 mmHg
- CCCCc1nc2ccc(C(O)C3CCCS3(=O)=O)cc2c(=O)n1Cc1ccc(-c2ccccc2-c2nn[nH]n2)cc1 (single isomer, unassigned; isomer 1) [Example 15]: 25 mmHg
